Biological target: c-Met (Homo sapiens)
Sequence (P08581 25-1390): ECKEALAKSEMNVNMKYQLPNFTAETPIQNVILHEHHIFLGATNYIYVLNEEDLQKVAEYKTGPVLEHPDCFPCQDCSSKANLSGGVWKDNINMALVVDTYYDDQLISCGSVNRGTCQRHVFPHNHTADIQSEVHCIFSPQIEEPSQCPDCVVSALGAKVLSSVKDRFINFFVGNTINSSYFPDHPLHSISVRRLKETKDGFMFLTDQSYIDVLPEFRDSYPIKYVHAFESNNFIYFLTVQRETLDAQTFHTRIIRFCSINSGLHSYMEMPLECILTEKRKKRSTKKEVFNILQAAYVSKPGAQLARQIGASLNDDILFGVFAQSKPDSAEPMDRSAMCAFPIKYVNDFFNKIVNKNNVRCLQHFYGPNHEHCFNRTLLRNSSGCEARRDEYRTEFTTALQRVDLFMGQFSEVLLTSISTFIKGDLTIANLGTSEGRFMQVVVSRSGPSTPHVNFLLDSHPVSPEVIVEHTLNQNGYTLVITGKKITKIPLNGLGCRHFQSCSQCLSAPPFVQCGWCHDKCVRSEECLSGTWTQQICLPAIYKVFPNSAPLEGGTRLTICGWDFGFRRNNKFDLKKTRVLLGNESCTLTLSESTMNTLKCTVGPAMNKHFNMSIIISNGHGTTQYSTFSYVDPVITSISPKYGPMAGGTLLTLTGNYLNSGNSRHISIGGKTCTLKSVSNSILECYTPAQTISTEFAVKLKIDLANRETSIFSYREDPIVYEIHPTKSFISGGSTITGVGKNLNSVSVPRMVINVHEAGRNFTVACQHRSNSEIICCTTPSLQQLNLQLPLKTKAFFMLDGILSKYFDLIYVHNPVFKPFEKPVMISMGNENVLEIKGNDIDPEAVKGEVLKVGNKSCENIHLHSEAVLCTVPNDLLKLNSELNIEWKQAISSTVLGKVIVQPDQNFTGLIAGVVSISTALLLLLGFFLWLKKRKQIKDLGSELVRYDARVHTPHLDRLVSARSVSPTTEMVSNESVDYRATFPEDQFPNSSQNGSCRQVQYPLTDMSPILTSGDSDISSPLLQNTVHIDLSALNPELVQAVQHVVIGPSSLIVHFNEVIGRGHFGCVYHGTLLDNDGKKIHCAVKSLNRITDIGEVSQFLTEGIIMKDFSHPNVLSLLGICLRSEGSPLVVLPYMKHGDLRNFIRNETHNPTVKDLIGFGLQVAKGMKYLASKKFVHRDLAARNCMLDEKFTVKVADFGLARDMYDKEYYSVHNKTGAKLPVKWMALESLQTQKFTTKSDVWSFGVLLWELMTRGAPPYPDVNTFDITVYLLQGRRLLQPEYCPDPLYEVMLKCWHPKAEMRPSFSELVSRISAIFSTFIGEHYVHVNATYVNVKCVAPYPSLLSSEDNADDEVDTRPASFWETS
measurementLabel: pIC50
Give bare numbers, as −log10 of the molar value.

// each listed molecule needs a value for pIC50
1. O=C(Nc1ccc(Oc2ncnc3ccsc23)c(F)c1)c1nc(-c2ccc(F)cc2)cs1 [Compound 51t]
2. O=C(Nc1ccc(Oc2ncnc3sccc23)c(F)c1)c1nc(-c2ccc(F)cc2)cs1 [Compound 51v]
3. COc1cc2nccc(Oc3ccc(NC(=O)c4nc(-c5ccccc5)cs4)cc3C)c2cc1OC [Compound 51n]
4. COc1ccc(-c2csc(C(=O)Nc3ccc(Oc4ccnc(Cl)c4)c(F)c3)n2)cc1OC [Compound 51z]

[7.39, 7.43, 7.34, 7.34]

// each listed molecule needs a value for pIC50
1. COc1cc2nccc(Oc3ccc(NC(=O)c4nc(-c5ccccc5)ns4)cc3)c2cc1OC [Compound 51a]
2. O=C(Nc1ccc(Oc2ccnc(Cl)c2)c(F)c1)c1nc(-c2ccc(Br)cc2)cs1 [Compound 51af]
3. COc1cc2nccc(Oc3ccc(NC(=O)c4nc(-c5ccccc5)cs4)c(C)c3)c2cc1OC [Compound 51m]
4. COc1cc2nccc(Oc3ccc(NC(=O)c4nc(-c5ccccc5)cs4)c(F)c3)c2cc1OC [Compound 51i]

[7.25, 7.72, 7.40, 7.51]

* * *

Target: VEGFR-2 (Homo sapiens)
Construct: purchased Invitrogen (Waltham, MA)
Sequence (P35968 20-1356): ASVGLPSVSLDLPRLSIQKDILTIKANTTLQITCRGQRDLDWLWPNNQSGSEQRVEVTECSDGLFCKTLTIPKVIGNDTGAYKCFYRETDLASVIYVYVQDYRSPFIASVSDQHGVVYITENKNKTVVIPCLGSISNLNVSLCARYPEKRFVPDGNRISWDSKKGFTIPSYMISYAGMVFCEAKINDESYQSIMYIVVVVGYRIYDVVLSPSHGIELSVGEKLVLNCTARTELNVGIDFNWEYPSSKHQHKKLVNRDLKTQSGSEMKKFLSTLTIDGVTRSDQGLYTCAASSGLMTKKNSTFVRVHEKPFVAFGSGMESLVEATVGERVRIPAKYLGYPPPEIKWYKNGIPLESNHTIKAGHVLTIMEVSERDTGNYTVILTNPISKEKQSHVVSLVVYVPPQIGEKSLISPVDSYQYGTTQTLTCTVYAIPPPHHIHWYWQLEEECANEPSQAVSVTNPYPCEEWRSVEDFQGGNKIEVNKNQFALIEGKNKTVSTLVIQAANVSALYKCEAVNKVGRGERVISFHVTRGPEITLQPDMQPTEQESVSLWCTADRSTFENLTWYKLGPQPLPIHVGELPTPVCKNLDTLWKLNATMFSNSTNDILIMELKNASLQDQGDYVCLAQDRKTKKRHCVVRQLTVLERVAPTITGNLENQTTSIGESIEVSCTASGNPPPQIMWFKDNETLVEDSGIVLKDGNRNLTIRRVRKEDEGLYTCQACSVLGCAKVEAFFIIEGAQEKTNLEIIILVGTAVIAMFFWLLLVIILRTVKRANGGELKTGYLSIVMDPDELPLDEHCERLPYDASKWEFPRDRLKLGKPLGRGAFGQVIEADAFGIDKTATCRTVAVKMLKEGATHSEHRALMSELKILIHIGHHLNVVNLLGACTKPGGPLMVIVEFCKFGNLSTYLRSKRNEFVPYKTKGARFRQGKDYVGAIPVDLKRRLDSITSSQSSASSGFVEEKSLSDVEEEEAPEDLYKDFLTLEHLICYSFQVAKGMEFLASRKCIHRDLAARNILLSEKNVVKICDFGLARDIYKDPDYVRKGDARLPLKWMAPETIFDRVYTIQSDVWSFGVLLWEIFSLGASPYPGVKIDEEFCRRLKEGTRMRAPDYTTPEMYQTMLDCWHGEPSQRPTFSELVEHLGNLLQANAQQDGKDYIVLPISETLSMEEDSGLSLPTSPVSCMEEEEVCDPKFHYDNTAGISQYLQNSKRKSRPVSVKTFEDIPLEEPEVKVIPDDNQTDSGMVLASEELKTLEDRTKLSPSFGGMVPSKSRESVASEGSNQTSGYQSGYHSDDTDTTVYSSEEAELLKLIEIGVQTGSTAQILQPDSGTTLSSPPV
Experiment: Tyrosine kinase HTRF assay, VEGFR-2
Format: biochemical
measurementLabel: pIC50
Numbers only, as −log10 of the molar value.

Look at this compound and give its reported pIC50. O=C(Nc1ccc(Oc2ccnc(Cl)c2Cl)c(F)c1)c1nc(-c2ccc(F)c(Cl)c2)cs1 [Compound 51am]
6.28

* * *

Please respond with reported melting point for every item in the list.

Known melting point results, listed for orientation:
Look at this compound and give its reported melting point. O=C(Nc1ccc(Oc2ncnc3ccsc23)c(F)c1)c1nc(-c2ccccc2)cs1 [Compound 51s]
95 to 97 °C

Look at this compound and give its reported melting point. O=C(Nc1ccc(Oc2ccnc(Cl)c2)c(F)c1)c1nc(-c2ccc3ccccc3c2)cs1 [Compound 51ai]
182 to 184 °C

Look at this compound and give its reported melting point. COc1cc2ncnc(Oc3ccc(NC(=O)c4nc(-c5ccc(F)cc5)cs4)cc3F)c2cc1OC [Compound 51p]
188 to 190 °C

// each listed compound needs a value for melting point
1. O=C(Nc1ccc(Oc2ncnc3ccsc23)c(F)c1)c1nc(-c2ccc(F)cc2)cs1 [Compound 51t]
2. O=C(Nc1ccc(Oc2ncnc3sccc23)c(F)c1)c1nc(-c2ccc(F)cc2)cs1 [Compound 51v]
3. O=C(Nc1ccc(Oc2ccnc(Cl)c2)c(F)c1)c1nc(-c2ccc(Br)cc2)cs1 [Compound 51af]
4. COc1cc2nccc(Oc3ccc(NC(=O)c4nc(-c5ccccc5)cs4)cc3C)c2cc1OC [Compound 51n]
5. O=C(Nc1ccc(Oc2ccnc(Cl)c2)c(F)c1)c1nc(-c2ccc(Cl)cc2)cs1 [Compound 51ad]

["146 to 148 °C", "154 to 156 °C", "192 to 194 °C", "136 to 138 °C", "167 to 169 °C"]

* * *

Assay: Pharmacokinetic study in BALB/c mice
Format: in vivo
Details: male, mouse, plasma, iv, i.v. (1.5 mg/kg), CL = dose/AUCi.v.
measurementLabel: clearance (mL/min/kg)
Give bare numbers, in mL/min/kg.

Look at this compound and give its reported clearance. O=C(Nc1ccc(Oc2ccnc(Cl)c2Cl)c(F)c1)c1nc(-c2ccc(F)c(Cl)c2)cs1 [Compound 51am]
10
